- System: NCI-H460 lung
Where a SMILES comes first, the peptide text is derived from it. [ ]: non-standard residue; d: D form. The star is where a group is joined. dTle = CC(C)(C)[C@@H](N)C(=O)O; 4Abz = Nc1ccc(C(=O)O)cc1; NHOH = ON*
Outcome codes: Yes for active, No for inactive

{"molecule": "O=C(Nc1cccc(Cl)c1)c1cccc(NC2=C(Cl)C(=O)N(Cc3ccccc3)C2=O)c1", "category-label": "No"}
{"molecule": "O=C(Nc1cccc(-c2ccc(Cl)c(C(F)(F)F)c2)c1)C1CCN(Cc2cccc3cccnc23)CC1", "category-label": "No"}
{"molecule": "C[C@@H](NC(=O)[C@H](NC(=O)[C@@H]1CCCN1C(=O)CNC(=O)c1ccc(N)cc1)C(C)(C)C)C(=O)NO (H-[4Abz]GP[dTle][dA]-{NHOH})", "category-label": "No"}
{"molecule": "Cc1ccc(C(=O)/C(=C\\c2ccc([N+](=O)[O-])cc2)S(=O)Cc2ccc(Cl)cc2)cc1 (stereo unspecified)", "category-label": "No"}
{"molecule": "Oc1ccc(C2c3ccccc3Oc3ccccc32)c2cccnc12", "category-label": "No"}
{"molecule": "O=C(NO)[C@@H](Cc1ccccc1)NS(=O)(=O)c1ccc(-c2ccccc2)cc1", "category-label": "No"}
{"molecule": "COC(=O)C12OCC34C(CC5C(C)C6=CC(=O)OC6=CC5(C)C3C(O)C1O)OC(=O)C(O)C24 (stereo unspecified)", "category-label": "Yes"}
{"molecule": "CC(=[N-])N1CCC[C@@H](Nc2c3ccccc3nc3ccccc23)C1.[Cl][Pt].[NH-]CCC[NH-]", "category-label": "Yes"}
{"molecule": "Fc1cccc(-n2ccc(-c3ccccc3)nc2=S)c1", "category-label": "No"}
{"molecule": "Cc1cn2c(/C=N/N=C(N)N)c(-c3ccccn3)nc2s1", "category-label": "No"}
{"molecule": "CCOC(=O)c1cc(-c2ccccc2)[nH]c1N/N=C/c1ccc(Cl)cc1", "category-label": "No"}

---

Recorded TGI by entry
- Test system: DU-145 prostate
- test: NCI tumour cell line growth inhibition, 48 h

{"molecule": "Cc1ccc(C(=O)/C(=C\\c2ccc([N+](=O)[O-])cc2)S(=O)Cc2ccc(Cl)cc2)cc1 (stereo not drawn)", "target": "DU-145 prostate", "TGI": "3.21 µM"}
{"molecule": "C=C(CO)[C@@H]1CC[C@]2(COC3CCCCO3)CC[C@]3(C)[C@H](CC[C@@H]4[C@@]5(C)C=C(C=O)C(=O)C(C)(C)[C@@H]5CC[C@]43C)[C@@H]12 (stereo partly drawn)", "target": "DU-145 prostate", "TGI": "1.72 µM"}
{"molecule": "CCOc1ccccc1-c1nc2c(s1)C(=O)c1ccccc1C2=O", "target": "DU-145 prostate", "TGI": "36.5 µM"}
{"molecule": "CC1=C(/C=C/C(C)=C/C=C/C(C)=C/C(=O)O)C(C)(C)CCC1", "target": "DU-145 prostate", "TGI": "> 100 µM"}
{"molecule": "CC(=O)OCC1OC(O[C@@H]2C[C@H]3C(C)(C)[C@@H](OC(C)=O)CC[C@]3(C)[C@H]3CC[C@]45C[C@]4(CC[C@H]5[C@@H](C)C[C@@H](O)[C@H](O)C(C)(C)F)[C@@]32C)C(O)C(O)C1O (stereo partly drawn)", "target": "DU-145 prostate", "TGI": "> 100 µM"}
{"molecule": "CC(=O)O[C@@]12CO[C@@H]1C[C@@H](O)[C@@]1(C)C(=O)[C@H](O)C3=C(C)[C@@H](OC(=O)[C@H](O)[C@@H](NC(=O)c4ccccc4)c4ccccc4)C[C@@](O)([C@@H](OC(=O)c4ccccc4)C12)C3(C)C (stereo partly drawn)", "target": "DU-145 prostate", "TGI": "> 100 µM"}
{"molecule": "CSC1=NNC(SC)=NN1", "target": "DU-145 prostate", "TGI": "0.345 µM"}
{"molecule": "COc1cc2c(cc1OC)CC1c3cc(OC)c(OC)cc3CCN1CC2 (stereo not drawn)", "target": "DU-145 prostate", "TGI": "> 100 µM"}
{"molecule": "O=C(Nc1cccc(Cl)c1)c1cccc(NC2=C(Cl)C(=O)N(Cc3ccccc3)C2=O)c1", "target": "DU-145 prostate", "TGI": "> 100 µM"}
{"molecule": "Oc1ccc(C2c3ccccc3Oc3ccccc32)c2cccnc12", "target": "DU-145 prostate", "TGI": "> 100 µM"}
{"molecule": "O=C(NNC(=S)NCc1ccccc1)c1csc(NC(=S)NC2CCCCC2)n1", "target": "DU-145 prostate", "TGI": "> 100 µM"}
{"molecule": "CC(C)=CCC/C(C)=C\\CCC1(C)OC(=O)C2CC21 (stereo not drawn)", "target": "DU-145 prostate", "TGI": "> 100 µM"}
{"molecule": "COc1cc(-c2csc(NC(=O)Nc3ccc(C(F)(F)F)cc3)n2)cc(OC)c1OC", "target": "DU-145 prostate", "TGI": "12.8 µM"}
{"molecule": "Clc1ccc(OCc2nnc3sc(-c4ccc(-c5ccc(Cl)cc5Cl)o4)nn23)cc1", "target": "DU-145 prostate", "TGI": "> 100 µM"}
{"molecule": "ONC1=Nc2ccccc2C(=S)N2CSCC12 (stereo not drawn)", "target": "DU-145 prostate", "TGI": "> 100 µM"}
{"molecule": "Cc1ccnc2[nH]c(-c3ccc(F)cc3)cc(=O)c12", "target": "DU-145 prostate", "TGI": "> 100 µM"}
{"molecule": "O=C(NO)[C@@H](Cc1ccccc1)NS(=O)(=O)c1ccc(-c2ccccc2)cc1", "target": "DU-145 prostate", "TGI": "> 25 µM"}
{"molecule": "C#Cc1cc(Br)c(OC(=O)C(C)(C)C)c(-c2cc(C#C)cc(Br)c2OC(=O)C(C)(C)C)c1", "target": "DU-145 prostate", "TGI": "> 100 µM"}

---

Recorded TGI by entry
- System: SF-295 CNS
- test: NCI tumour cell line growth inhibition, 48 h

{"compound": "COC(=O)c1cc2c3ccccc3[nH]c2c2sccc12", "endpoint-unit": "µM", "readout-qualifier": "=", "TGI": 48.7}
{"compound": "NC1=NN(c2ccccc2)C(=O)C1C(=O)C(=O)Nc1nccs1 (stereo not given)", "endpoint-unit": "µM", "readout-qualifier": ">", "TGI": 100}
{"compound": "COC(=O)C(Br)C1CCc2ccccc21 (stereo not given)", "endpoint-unit": "µM", "readout-qualifier": ">", "TGI": 100}
{"compound": "COc1ccc2c3c(c(C(=O)c4ccccc4)oc13)CCC2", "endpoint-unit": "µM", "readout-qualifier": ">", "TGI": 100}
{"compound": "C=C(C(=C)N1N=NC2C3CCC(C3)C21)N1N=NC2C3CCC(C3)C21 (stereo not given)", "endpoint-unit": "µM", "readout-qualifier": ">", "TGI": 100}
{"compound": "OCCNc1nc(Nc2ccc(Cl)c(Cl)c2)nc2ccccc12", "endpoint-unit": "µM", "readout-qualifier": "=", "TGI": 20.2}
{"compound": "CC1(C)N=C(N)N=C(N)N1c1cccc(C(=O)Nc2ccc(S(=O)(=O)F)cc2)c1", "endpoint-unit": "µM", "readout-qualifier": ">", "TGI": 100}
{"compound": "CCCCCCCCCCCCCCCCOP(=O)(O)OCC(NC(C)=O)C(=O)O (stereo not given)", "endpoint-unit": "µM", "readout-qualifier": "=", "TGI": 47.4}
{"compound": "O=C(O)CCC(N=NNc1ccc(-c2nc3ccccc3[nH]2)cc1)C(=O)O (stereo not given)", "endpoint-unit": "µM", "readout-qualifier": "=", "TGI": 73.2}
{"compound": "O=C1c2ccccc2C(=O)c2c(Nc3cc4c5c(ccc6c7ccc8c9c(cc(Nc%10cccc%11c%10C(=O)c%10ccccc%10C%11=O)c(c3c56)c97)-c3ccccc3C8=O)C(=O)c3ccccc3-4)cccc21", "endpoint-unit": "µM", "readout-qualifier": ">", "TGI": 100}
{"compound": "O=C(O)c1c(=O)cccc2ssc12", "endpoint-unit": "µM", "readout-qualifier": "=", "TGI": 3.17}
{"compound": "COc1cc(-c2csc(NC(=O)Nc3ccc(C(F)(F)F)cc3)n2)cc(OC)c1OC", "endpoint-unit": "µM", "readout-qualifier": "=", "TGI": 4.35}
{"compound": "CCCCCCCCCCCCCCCCCCOCC(CCP(=O)(CP(=O)(O)O)Oc1ccccc1)OCCCCCCCCCCCCCCCCCC (stereo not given)", "endpoint-unit": "µM", "readout-qualifier": ">", "TGI": 100}
{"compound": "Nc1n[n+](-c2ccccc2)no1", "endpoint-unit": "µM", "readout-qualifier": ">", "TGI": 100}
{"compound": "O=C(N/N=C1\\C(=O)N(c2nccs2)C(=O)C(=O)C1c1nc2ccccc2s1)c1ccccc1O (stereo not given)", "endpoint-unit": "µM", "readout-qualifier": ">", "TGI": 100}
